Data origin, for the record: patent US6998415B2

# Lookup of reported melting point keyed by entry

// known answers, use as guide
COC1(c2cc(F)cc(OCC#Cc3ccc(Cc4nc(-c5ccccc5)c(-c5ccc(S(N)(=O)=O)cc5)o4)cc3)c2)CCOCC1: 86 to 100 °C
COC1(c2cccc(CSCc3nc(-c4ccccc4)c(-c4ccc(S(N)(=O)=O)cc4)o3)c2)CCOCC1: 77.2 to 81.7 °C
COC1(c2cccc(CSc3nc(-c4ccccc4)c(-c4ccc(S(N)(=O)=O)cc4)o3)c2)CCOCC1: 74.7 to 78.5 °C
COC1(c2cccc(CSCCc3nc(-c4ccccc4)c(-c4ccc(S(N)(=O)=O)cc4)o3)c2)CCOCC1: 60.9 to 66.4 °C
COC1(c2cc(F)cc(Oc3nc(-c4ccccc4)c(-c4ccc(S(N)(=O)=O)cc4)o3)c2)CCOCC1: 159 to 161 °C

Now look at this entry.
Enquiry: Recorded melting point of COC(=O)C(Cc1cccc(C2(OC)CCOCC2)c1)c1nc(-c2ccccc2)c(-c2ccc(S(N)(=O)=O)cc2)o1 (stereo not drawn) , please.
Return: 88.7 to 94.9 °C
